Target: pooled human IgG (human IgG1, 2, 3 and 4)
Assign Enzyme Activity Endpoint Assay: Fab′2 to each entry below.
The answer is to be given in ng/µL; state only the numeric part.

Ask: Request the reported Enzyme Activity Endpoint Assay: Fab′2 associated with PRT-245 (protein) MVTSVWTKGVTPPANFTQGEDVFHAPYVANQGWYDITKLFNGKDDLLCGAATAGNMLHWWFDQNKDQIKRYLEEHPEKQKINFNGEQMFDVKEAIDTKNHQLDSKLFEYFLEKAFPNLSTKHLGVFPDHVIDMFINGYRLSLLNHGPTPVKEGSKDPRGGIFDAVFTRGDQSKLLTSRHDFKEKNLKEISDLIKKELTEGKALGLSHTYANGRINHVINLWGADFDSNGNLKAIAVTDSDSNASIGMKKYFVGVNSSGKVAISAKEIKEDNIGAQVLGLFTLSTGQDSWNQTN
Result: 423

Ask: Request the reported Enzyme Activity Endpoint Assay: Fab′2 associated with PRT-514 (protein) MITSVWTKGVTPPTDFIKGEDVFHAPYKAGQGWYDITKAFDGGDDLLCGAATAGNMLHWWFDQNKEEIEAYLKKHPEKQKIMFGDQELLDVRKVINTKDSQTNSALFNYFKDKAFPNLSARRLGVMPDLVLDMFINGYYLNVYKTQTTDVNRQEQTKDRRGGIFDAVFGRGDQTKLLTERHDFKEKTLNEISQLIKQELTEGKALGLSHTYANVRINHVINLWGADFDAEGNLEAIYVTDSDSNASIGMKKYFVGVNSAGKVAISAKEIKEDNIGAQVLGLFTLSTGQKIWNKTNLEHHHHHH
Result: 64

Ask: Request the reported Enzyme Activity Endpoint Assay: Fab′2 associated with PRT-602 (protein) MANQEIRYSEVTPYHITSVWTKGVTPPANFTQGEDVFHAPYVANQGWYDITKTFNGKDDLLCGAATAGNMLHWWFDQNKDQIERYLEEHPEKQKINFNGEQMFDVKEAIDTKDSQTDSKLFEYFKEKAFPYLSTKHLGVFPDHVIDMFINGYRLSLTNHGPTPVKEGSKDPRGGIFDAVFTRGDQSKLLTSRHDFKEKTLKEISDLIKQELTEGKALGLSHTYANVRINHVINLWGADFDSEGNLKAIYVTDSDSNASIGMKKYYVGVNSAGKVAISAKEIEEDNIGAQVLGLFTLSTGQDIWNQTNLEHHHHHH
Result: 543

Ask: Request the reported Enzyme Activity Endpoint Assay: Fab′2 associated with PRT-544 (protein) MANQEIRYSKNENPNVTIKWVHGIGEPTQAEKEKIEFWWYETTTTKFFNNRKVDHLGDGNQCWAKTDSNMLHWWFVQNEENINQYIAKKNITGKINFNGEQMFDVKEGIDDNQEKEKSYIANTFRTKKAHNLSTKHKGDYIINGLSWYLYGLNNFKIAHGPTPVKKKPKFYGPALFKDVFNRGDGNTPIIVETDFKEYTKKEFEDTLSAALDSKKAIGINIYGSNVDYQHAITLWGAAFDEEENIIAIYVVDNNFKFENRIFPYGIWYQKEGRPYLFNYEINSFVKNRYVGEVITLDKGEAQWQETNLEHHHHHH
Result: 12
